Target: HDAC2 (Homo sapiens (Human), UniProt Q92769)
Sequence (Q92769 whole entry): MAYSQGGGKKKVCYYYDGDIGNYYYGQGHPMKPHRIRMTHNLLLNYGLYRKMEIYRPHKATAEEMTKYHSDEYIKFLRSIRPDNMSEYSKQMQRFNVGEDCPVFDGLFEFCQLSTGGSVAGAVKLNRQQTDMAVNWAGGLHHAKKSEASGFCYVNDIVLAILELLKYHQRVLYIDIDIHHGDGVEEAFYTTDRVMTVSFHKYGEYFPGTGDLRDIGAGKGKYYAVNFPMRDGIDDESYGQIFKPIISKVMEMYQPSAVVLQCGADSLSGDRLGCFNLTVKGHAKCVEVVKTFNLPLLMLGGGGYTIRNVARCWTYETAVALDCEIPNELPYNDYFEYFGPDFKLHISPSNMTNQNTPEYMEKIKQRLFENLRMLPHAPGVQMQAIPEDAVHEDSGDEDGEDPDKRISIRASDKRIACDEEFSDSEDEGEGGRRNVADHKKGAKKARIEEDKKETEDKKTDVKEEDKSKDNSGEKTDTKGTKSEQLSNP
Assay: HDAC in vitro enzymatic assay (fluorescence)
Settings: read-out: IC50 HDAC2; selectivity profiling; top concentration 200 μM
recorded endpoint: pIC50
Just so you know, pIC50 here is -log10 of the concentration in molar units; reply with that number alone.

CCc1ccc(-c2nc3ccc(C(=O)NO)cc3[nH]2)cc1 : 3.78
COc1c(C)cc(-c2nc3cc(C(=O)NO)ccc3n2C)cc1C : 4.70

# query: pIC50 | item CC(C)Oc1ccc(-c2nc3ccc(C(=O)NO)cc3[nH]2)cc1 | system: HDAC2 (Homo sapiens (Human), UniProt Q92769)
4.48

# query: pIC50 | item O=C(NO)c1ccc2nc(-c3ccc4c(c3)CCO4)[nH]c2c1 | system: HDAC2 (Homo sapiens (Human), UniProt Q92769)
4.24

# query: pIC50 | item O=C(NO)c1ccc2nc(-c3cccc(Br)c3)[nH]c2c1 | system: HDAC2 (Homo sapiens (Human), UniProt Q92769)
5.03

# query: pIC50 | item CCCCc1ccc(-c2nc3ccc(C(=O)NO)cc3[nH]2)cc1 | system: HDAC2 (Homo sapiens (Human), UniProt Q92769)
4.03

# query: pIC50 | item CC(C)c1ccc(-c2nc3ccc(C(=O)NO)cc3[nH]2)cc1 | system: HDAC2 (Homo sapiens (Human), UniProt Q92769)
4.49
